// reported melting point for each item listed

INSERT INTO assay_data (compound, result) VALUES
  ('COc1cc(OC)c(N2CCCC2)cc1/C=C/C(=O)c1ccc(S(=O)(=O)NCCCN2CCN(C)CC2)cc1', '64 to 68 °C');

Q. Fill blank: measured melting point of the compound "COc1cc(OC)c(-c2cccs2)cc1/C=C/C(=O)c1ccc(S(=O)(=O)NC(C)(C)C(=O)O)cc1" is ____.
A. 205 °C (dec.)

Q. "COc1cc(OC)c(-c2cc3ccccc3[nH]2)cc1/C=C/C(=O)c1ccc(S(=O)(=O)NCC(=O)O)cc1" , same question.
A. 189 to 190 °C

Q. Now the compound "COc1cc(OC)c(N2CCCC2)cc1/C=C/C(=O)c1ccc(S(=O)(=O)Nc2cc(C)on2)cc1"
A. 164 to 165 °C

###

Tested on: VCAM-1
Experiment: In Vitro VCAM-1 Assay (TNF-α stimulated endothelial cells, cell-surface ELISA)
Assay type: cell-based
Conditions: primary human aortic (HAEC) or pulmonary (HPAEC) endothelial cells, TNF-α 1 ng/ml, approximately 16 hours, ELISA OD 450 nm
pIC50: −log10 of the molar value.
observed.property: pIC50

Some compounds with recorded pIC50:
INSERT INTO results (compound, result) VALUES
  ('COc1cc(OC)c(-c2cccs2)cc1/C=C/C(=O)c1ccc(S(=O)(=O)Nc2nnn[nH]2)cc1 [Example 4]', '< 5.00'),
  ('COc1cc(OC)c(-c2cccs2)cc1/C=C/C(=O)c1ccc(S(=O)(=O)N2CCN(C)CC2)cc1 [Example 21]', '> 5.00'),
  ('COc1cc(OC)c(-c2cc3ccccc3n2C)cc1/C=C/C(=O)c1ccc(S(=O)(=O)NCc2cccnc2)cc1 [Example 17]', '> 5.00');

Shift focus to the following entry.
Q. Which value of pIC50 has been reported for COc1cc(OC)c(-c2cccs2)cc1/C=C/C(=O)c1ccc(S(=O)(=O)Nc2cc(C)no2)cc1 [Example 9] in the records?
A. > 5.00

###

Test system: VCAM-1
Experiment: In Vitro VCAM-1 Assay (TNF-α stimulated endothelial cells, cell-surface ELISA)
Assay type: cell-based
Details: Homo sapiens, Endothelial cell, 16 h, primary human aortic (HAEC) or pulmonary (HPAEC) endothelial cells, TNF-α 1 ng/ml, approximately 16 hours, ELISA OD 450 nm
observed.property: IC50

Examples from the recorded data:
INSERT INTO measurements (molecular_string, result) VALUES
  ('COc1cc(OC)c(-c2cccs2)cc1/C=C/C(=O)c1ccc(S(=O)(=O)NCC(F)(F)F)cc1', '< 5 µM'),
  ('COc1cc(OC)c(-c2cccs2)cc1/C=C/C(=O)c1ccc(S(=O)(=O)Nc2ccc(C(F)(F)F)cn2)cc1', '< 10 µM'),
  ('COc1cc(OC)c(N2CCCC2)cc1/C=C/C(=O)c1ccc(S(=O)(=O)Nc2ccccn2)cc1', '< 5 µM'),
  ('CONS(=O)(=O)c1ccc(C(=O)/C=C/c2cc(-c3cc4ccccc4n3C)c(OC)cc2OC)cc1', '< 10 µM'),
  ('COc1cc(OC)c(-c2cc3ccccc3[nH]2)cc1/C=C/C(=O)c1ccc(S(=O)(=O)NCC(=O)O)cc1', '> 10 µM');

Q. If you can, please state the reported IC50 value of "COc1cc(OC)c(-c2cccs2)cc1/C=C/C(=O)c1ccc(S(=O)(=O)Nc2ccon2)cc1" .
A. < 5 µM

Q. Request: "COc1cc(OC)c(-c2cc3ccccc3[nH]2)cc1/C=C/C(=O)c1ccc(S(=O)(=O)NC(=O)C(C)C)cc1"
A. < 5 µM
